Attribution: ChEMBL document CHEMBL1151281

- System: Pyricularia grisea
- assay_overview: Antifungal activity against Magnaporthe grisea IFO 30733 after 3 days
- Assay type: functional
- condition_info: IFO 30733, 72 h
Provide the reported MIC of each item.
Give bare numbers, in µM.

Worked cases, MIC given:
>  <molecule>
CCCC[C@H](O)/C=C/C(=O)O[C@@H]1[C@@H](C)[C@@H]2OC(=O)C(C)=C[C@@]2(C)O[C@H]1C [BOTCININ D]

>  <MIC, µM>
12.5

$$$$
>  <molecule>
CCCCCC[C@H](O)/C=C/C(=O)O[C@@H]1[C@@H](C)[C@@H]2OC(=O)[C@H](C)[C@H](OC(C)=O)[C@@]2(C)O[C@H]1C [BOTCININ B]

>  <MIC, µM>
12.5

$$$$
>  <molecule>
CCCC[C@H](O)/C=C/C(=O)O[C@@H]1[C@@H](C)[C@@H]2OC(=O)[C@H](C)[C@H](OC(C)=O)[C@@]2(C)O[C@H]1C [BOTCININ A]

>  <MIC, µM>
100

$$$$
>  <molecule>
CCCC[C@H](O)CCC(=O)O[C@@H]1[C@@H](C)[C@@H]2OC(=O)[C@H](C)[C@H](OC(C)=O)[C@@]2(C)O[C@H]1C

>  <MIC, µM>
100

$$$$

Attention now turns to another entry.
Input: Can you share its MIC? I mean this molecule: CCCCCC[C@H](O)/C=C/C(=O)O[C@@H]1[C@@H](C)[C@@H]2OC(=O)[C@@H](C)[C@H](OC(C)=O)[C@@]2(C)O[C@H]1C [BOTCININ C]
Output: 100
